target: CYP147G1 (Mycobacterium marinum)
Sequence (B2HE89 1-422): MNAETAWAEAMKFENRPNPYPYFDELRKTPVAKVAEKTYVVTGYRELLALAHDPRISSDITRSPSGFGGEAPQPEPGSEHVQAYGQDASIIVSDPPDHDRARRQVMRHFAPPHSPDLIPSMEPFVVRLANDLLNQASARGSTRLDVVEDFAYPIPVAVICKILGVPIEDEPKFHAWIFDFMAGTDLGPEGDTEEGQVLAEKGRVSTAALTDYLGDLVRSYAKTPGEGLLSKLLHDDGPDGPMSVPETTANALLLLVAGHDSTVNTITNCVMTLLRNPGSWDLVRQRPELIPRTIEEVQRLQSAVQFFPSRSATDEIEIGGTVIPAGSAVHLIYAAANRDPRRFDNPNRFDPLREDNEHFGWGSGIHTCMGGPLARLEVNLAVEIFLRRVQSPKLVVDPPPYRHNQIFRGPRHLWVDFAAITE
measuredEndpoint: pKd
pKd here is simply -log10 of the concentration when that concentration is written in mol/L.

Query :: Report pKd for CCCCCCCCCCC(=O)O tested on CYP147G1 (Mycobacterium marinum).
Result :: 4.60

---

biological target: CYP150A5 (Mycobacterium marinum)
Sequence (B2HG29 1-423): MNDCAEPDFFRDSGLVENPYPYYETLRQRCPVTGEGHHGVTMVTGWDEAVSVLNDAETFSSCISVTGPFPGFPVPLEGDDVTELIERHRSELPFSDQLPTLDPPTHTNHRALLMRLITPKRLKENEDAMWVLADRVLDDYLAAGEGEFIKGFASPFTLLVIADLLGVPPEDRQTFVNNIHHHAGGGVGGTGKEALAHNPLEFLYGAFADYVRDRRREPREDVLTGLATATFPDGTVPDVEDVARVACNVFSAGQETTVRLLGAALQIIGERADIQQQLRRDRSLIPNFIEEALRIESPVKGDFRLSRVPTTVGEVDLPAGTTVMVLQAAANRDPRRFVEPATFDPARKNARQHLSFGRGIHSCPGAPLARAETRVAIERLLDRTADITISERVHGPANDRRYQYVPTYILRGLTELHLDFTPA
measuredEndpoint: Kd (µM)
Quick reminder: number only, in µM, skip the unit.

Query :: State its Kd on CYP150A5 (Mycobacterium marinum): CC(=O)/C=C/C1=C(C)CCCC1(C)C [β-ionone]
Result :: 41

---

target: CYP269A1 (Mycobacterium marinum, UniProt B2HPM5)
Sequence (B2HPM5 1-403): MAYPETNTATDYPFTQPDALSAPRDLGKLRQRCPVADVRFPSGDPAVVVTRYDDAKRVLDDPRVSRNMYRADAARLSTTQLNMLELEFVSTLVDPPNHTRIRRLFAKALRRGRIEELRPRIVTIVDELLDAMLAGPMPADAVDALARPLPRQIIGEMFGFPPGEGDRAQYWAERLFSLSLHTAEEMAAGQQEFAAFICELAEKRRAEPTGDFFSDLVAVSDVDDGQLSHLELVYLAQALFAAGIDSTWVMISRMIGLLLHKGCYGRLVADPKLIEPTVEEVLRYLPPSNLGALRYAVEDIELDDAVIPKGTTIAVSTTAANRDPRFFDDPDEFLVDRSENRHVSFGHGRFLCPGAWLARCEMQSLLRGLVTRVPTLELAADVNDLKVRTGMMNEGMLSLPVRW
measuredEndpoint: Kd (nM)
Quick note: give the figure in nM, leave out the unit.

Query :: Can you look up Kd on CYP269A1 (Mycobacterium marinum, UniProt B2HPM5) for Clc1ccc(COC(Cn2ccnc2)c2ccc(Cl)cc2Cl)c(Cl)c1 (stereo not shown) [miconazole] ?
Result :: 50
